# test: cn = amount concentration of the nth substance listed, in mol/dm3
# test.conditions: 313 K, Ring tensiometer, c1 = 0.00398
readout.kind: surface tension liquid-gas (mN/m)

# compound, surface tension liquid-gas (mN/m)
measured = [
    ("CCCCCCCCCCCC[N+](C)(C)Cc1ccccc1.[Br-] [benzenemethanaminium, N-dodecyl-N,N-dimethyl, bromide] + O", 33.92),
]

P: CCCCCCCCCCCCOS(=O)(=O)[O-].[Na+] [sodium dodecyl sulfate] + O
Q: CCCCCCCCCCCCN(C)CC(=O)[O-].[Na+] [sodium laurylsarcosinate] + O
Query: Pick one: P or Q . Which has the bigger surface tension liquid-gas number? The response must carry the label of the picked entry.
Response: P
(P: 48.45 mN/m, Q: 26.12 mN/m)

* * *

# test: cn = amount concentration of the nth substance listed, in mol/dm3
# test.conditions: 293 K, Ring tensiometer, c1 = 5.01e-05
readout.kind: surface tension liquid-gas (mN/m)

# compound, surface tension liquid-gas, mN/m
data = [
    ("CCCCCCCCCCCCN(C)CC(=O)[O-].[Na+] [sodium laurylsarcosinate] + O", 69),
    ("CCCCCCCCCCCC[N+](C)(C)CC.[Br-] [dodecyl ethyl dimethylammonium bromide] + O", 70.7),
    ("CCCCCCCCCCCC[N+](C)(C)Cc1ccccc1.[Br-] [benzenemethanaminium, N-dodecyl-N,N-dimethyl, bromide] + O", 66.8),
    ("CCCCCCCCCCCCCCCC[N+](C)(C)C.[Br-] [N,N,N-trimethyl-1-hexadecanaminium bromide] + O", 69.2),
    ("CCCCCCCCCCCCCC[N+](C)(C)C.[Br-] [tetradecyltrimethylammonium bromide] + O", 70.8),
    ("CCCCCCCCCCCCCCCC[n+]1ccccc1.[Br-] [1-hexadecylpyridinium bromide] + O", 67.4),
    ("CCCCCCCCCCCCOS(=O)(=O)[O-].[Na+] [sodium dodecyl sulfate] + O", 72.69),
]

* * *

# test: cn = amount concentration of the nth substance listed, in mol/dm3
# test.conditions: 303 K, Ring tensiometer, c1 = 0.01
readout.kind: surface tension liquid-gas (mN/m)

P: CCCCCCCCCCCCN(C)CC(=O)[O-].[Na+] [sodium laurylsarcosinate] + O
Q: CCCCCCCCCCCCOS(=O)(=O)[O-].[Na+] [sodium dodecyl sulfate] + O
Query: Pick one: P or Q . Which one has the lower reported surface tension liquid-gas? The response must carry the label of the picked entry.
Response: P

* * *

# test: cn = amount concentration of the nth substance listed, in mol/dm3
# test.conditions: 313 K, Ring tensiometer, c1 = 1e-06
readout.kind: surface tension liquid-gas (mN/m)

# compound, readout.kind, experimental.result
measured = [
    ("CCCCCCCCCCCCN(C)CC(=O)[O-].[Na+] [sodium laurylsarcosinate] + O", "surface tension liquid-gas", 69.52),
    ("CCCCCCCCCCCC[N+](C)(C)Cc1ccccc1.[Br-] [benzenemethanaminium, N-dodecyl-N,N-dimethyl, bromide] + O", "surface tension liquid-gas", 69.38),
    ("CCCCCCCCCCCCOS(=O)(=O)[O-].[Na+] [sodium dodecyl sulfate] + O", "surface tension liquid-gas", 69.58),
    ("CCCCCCCCCCCCCCCCS(=O)(=O)[O-].[Na+] [sodium hexadecylsulfonate] + O", "surface tension liquid-gas", 69.55),
]

* * *

# test: cn = amount concentration of the nth substance listed, in mol/dm3
# test.conditions: 303 K, Ring tensiometer, c1 = 0.000501
readout.kind: surface tension liquid-gas (mN/m)

# compound, readout.kind, experimental.result
records = [
    ("CCCCCCCCCCCC[N+](C)(C)Cc1ccccc1.[Br-] [benzenemethanaminium, N-dodecyl-N,N-dimethyl, bromide] + O", "surface tension liquid-gas", 50.07),
    ("CCCCCCCCCCCC[N+](C)(C)CC.[Br-] [dodecyl ethyl dimethylammonium bromide] + O", "surface tension liquid-gas", 66.59),
    ("CCCCCCCCCCCCN(C)CC(=O)[O-].[Na+] [sodium laurylsarcosinate] + O", "surface tension liquid-gas", 48.46),
    ("CCCCCCCCCCCCCCCC[N+](C)(C)C.[Br-] [N,N,N-trimethyl-1-hexadecanaminium bromide] + O", "surface tension liquid-gas", 46.83),
]

* * *

# test: cn = amount concentration of the nth substance listed, in mol/dm3
# test.conditions: 293 K, Ring tensiometer, c1 = 1e-08
readout.kind: surface tension liquid-gas (mN/m)

# molecule, experimental.result
records = [
    ("CCCCCCCCCCCCCCCC[N+](C)(C)C.[Br-] [N,N,N-trimethyl-1-hexadecanaminium bromide] + O", 72.79),
    ("CCCCCCCCCCCCCCCCS(=O)(=O)[O-].[Na+] [sodium hexadecylsulfonate] + O", 72.8),
    ("CCCCCCCCCCCCOS(=O)(=O)[O-].[Na+] [sodium dodecyl sulfate] + O", 72.8),
    ("CCCCCCCCCCCCCCCC[n+]1ccccc1.[Br-] [1-hexadecylpyridinium bromide] + O", 72.8),
]

* * *

# test: cn = amount concentration of the nth substance listed, in mol/dm3
# test.conditions: 303 K, Ring tensiometer, c1 = 1e-06
readout.kind: surface tension liquid-gas (mN/m)

# molecule, unit.name, surface tension liquid-gas
measured = [
    ("CCCCCCCCCCCC[N+](C)(C)CC.[Br-] [dodecyl ethyl dimethylammonium bromide] + O", "mN/m", 71.19),
    ("CCCCCCCCCCCCN(C)CC(=O)[O-].[Na+] [sodium laurylsarcosinate] + O", "mN/m", 71.1),
    ("CCCCCCCCCCCCOS(=O)(=O)[O-].[Na+] [sodium dodecyl sulfate] + O", "mN/m", 71.17),
    ("CCCCCCCCCCCCCCCCS(=O)(=O)[O-].[Na+] [sodium hexadecylsulfonate] + O", "mN/m", 71.15),
]

* * *

# test: cn = amount concentration of the nth substance listed, in mol/dm3
# test.conditions: 313 K, Ring tensiometer, c1 = 0.0002
readout.kind: surface tension liquid-gas (mN/m)

# compound, surface tension liquid-gas, mN/m
rows = [
    ("CCCCCCCCCCCCOS(=O)(=O)[O-].[Na+] [sodium dodecyl sulfate] + O", 67.85),
    ("CCCCCCCCCCCCCC[N+](C)(C)C.[Br-] [tetradecyltrimethylammonium bromide] + O", 63.61),
    ("CCCCCCCCCCCCCCCC[N+](C)(C)C.[Br-] [N,N,N-trimethyl-1-hexadecanaminium bromide] + O", 59.45),
    ("CCCCCCCCCCCCCCCCS(=O)(=O)[O-].[Na+] [sodium hexadecylsulfonate] + O", 58.84),
    ("CCCCCCCCCCCCCCCC[n+]1ccccc1.[Br-] [1-hexadecylpyridinium bromide] + O", 53.01),
]

* * *

# test: cn = amount concentration of the nth substance listed, in mol/dm3
# test.conditions: 313 K, Ring tensiometer, c1 = 0.000794
readout.kind: surface tension liquid-gas (mN/m)

# compound, surface tension liquid-gas (mN/m)
data = [
    ("CCCCCCCCCCCCCCCC[n+]1ccccc1.[Br-] [1-hexadecylpyridinium bromide] + O", 43.86),
    ("CCCCCCCCCCCCCCCC[N+](C)(C)C.[Br-] [N,N,N-trimethyl-1-hexadecanaminium bromide] + O", 39),
    ("CCCCCCCCCCCCCC[N+](C)(C)C.[Br-] [tetradecyltrimethylammonium bromide] + O", 52.61),
]

1: CCCCCCCCCCCCOS(=O)(=O)[O-].[Na+] [sodium dodecyl sulfate] + O
2: CCCCCCCCCCCCN(C)CC(=O)[O-].[Na+] [sodium laurylsarcosinate] + O
Query: Pick one: 1 or 2 . Which one has the lower reported surface tension liquid-gas? The response must carry the label of the picked entry.
Response: 2
(2: 42.71 mN/m, 1: 64.01 mN/m)

* * *

# test: cn = amount concentration of the nth substance listed, in mol/dm3
# test.conditions: 293 K, Ring tensiometer, c1 = 1e-05
readout.kind: surface tension liquid-gas (mN/m)

# molecule, experimental.result
rows = [
    ("CCCCCCCCCCCC[N+](C)(C)Cc1ccccc1.[Br-] [benzenemethanaminium, N-dodecyl-N,N-dimethyl, bromide] + O", 69.6),
    ("CCCCCCCCCCCCCCCC[N+](C)(C)C.[Br-] [N,N,N-trimethyl-1-hexadecanaminium bromide] + O", 71.73),
    ("CCCCCCCCCCCCCC[N+](C)(C)C.[Br-] [tetradecyltrimethylammonium bromide] + O", 71.6),
    ("CCCCCCCCCCCCOS(=O)(=O)[O-].[Na+] [sodium dodecyl sulfate] + O", 72.75),
    ("CCCCCCCCCCCCN(C)CC(=O)[O-].[Na+] [sodium laurylsarcosinate] + O", 71.4),
    ("CCCCCCCCCCCC[N+](C)(C)CC.[Br-] [dodecyl ethyl dimethylammonium bromide] + O", 71.7),
    ("CCCCCCCCCCCCCCCCS(=O)(=O)[O-].[Na+] [sodium hexadecylsulfonate] + O", 72.2),
    ("CCCCCCCCCCCCCCCC[n+]1ccccc1.[Br-] [1-hexadecylpyridinium bromide] + O", 71.1),
]
